System: Bach1 mRNA
protocol_description: Initial screen: Bach1 mRNA knock-down in mouse NIH 3T3 cells (96-well transfection, quantitative RT-PCR)
Type: cell-based
experimental_parameters: mouse NIH3T3 cells, n = 2, 24 hrs post-transfection, protocol 10 nM siNA
[invAb] = inverted abasic unit; m = 2'-O-methyl; r = 2'-OH (RNA); f = 2'-fluoro
quantity_name: % KD (%)

substance	quantity_name	observed_result
29969-DC: Bach1 siNA duplex, target site 1790 (mouse); sense B GAuuuccAAuccuuGuuGA TTB (SEQ 87); antisense UCAAcAAGGAuuGGAAAucUU (SEQ 88) (sense GAUUUCCAAUCCUUGUUGATT; antisense UCAACAAGGAUUGGAAAUCUU; sense: DNA at AGT, 2'-fluoro at CU, [invAb] at 5' end, 3' end, backbone not given here; antisense: sugars from the 5' end rrrmfmmmmmffmmmmmffmm, backbone not given here)	% KD	72.7
29959-DC: Bach1 siNA duplex, target site 1415; sense B GAGuGuccGuGGuuAGGuA TTB (SEQ 67); antisense UACcuAAccAcGGAcAcuCUU (SEQ 68) (sense GAGUGUCCGUGGUUAGGUATT; antisense UACCUAACCACGGACACUCUU; sense: DNA at AGT, 2'-fluoro at CU, [invAb] at 5' end, 3' end, backbone not given here; antisense: chemistry not given here; in key)	% KD	−9.9
